Hey, just so you know, these numbers are from patent US20250235462A1.

# Test system: intracellular HBV DNA
# Assay Explanation: Real-time PCR for intracellular HBV DNA in HepAD38 cells
# Format: cell-based, hepatitis B virus (HBV)
# Conditions Used: treated for 65 hours, intracellular HBV DNA by real-time PCR, read-out: IC50
# Description: HepAD38 cells were cultured in DMEM medium (Welgene) supplemented with 200 unit/mL penicillin, 200 μg/mL streptomycin, and 10% FBS. During maintenance and passage, the cells were cultured together with 0.4 μg/mL tetracycline. Two days before the treatment with compounds for inducing HBV replication was started, the medium was replaced with a tetracycline-free complete growth medium. […]
Measured Quantity: pIC50
Formally, pIC50 is defined as -log10 of the concentration c, with c in mol/L.

Task item: Return reported pIC50; argument: O=C(Nc1cc(F)c(F)c(F)c1)c1ccc(F)c(S(=O)(=O)N2CCC(O)CC2)c1 [NVR, reference compound]
Reply: 6.40
